test system: Streptococcus sp.; experiment: in vitro antibacterial evaluation, MIC by broth dilution; type: cell-based; conditions: broth dilution, 18 hours at 35° C.
propertyName: MIC Streptococcus pneumoniae (ATCC 6301)

molecule	targetDesc	MIC Streptococcus pneumoniae (ATCC 6301)
CC(c1ccccc1)C1NC(=O)CNC(=O)C(CO)NC(=O)C(C(O)C2CN(Cc3ccc(-c4ccccc4)cc3)C(=N)N2C2OC(CO)C(O)C(O)C2O)NC(=O)C(C(O)C2CNC(=N)N2)NC(=O)C(Cc2ccc(OC3OC(CO)C(OC4OC(CO)C(O)C(O)C4O)C(O)C3O)cc2)NC1=O (stereo not shown) [Example 66a]	Streptococcus sp.	>128 µg/mL

Tell me its MIC Streptococcus pneumoniae (ATCC 6301) on Streptococcus sp.: CC(c1ccccc1)C1NC(=O)CNC(=O)C(CO)NC(=O)C(C(O)C2CNC(=N)N2C2OC(CO)C(O)C(O)C2O)NC(=O)C(C(O)C2CNC(=N)N2)NC(=O)C(Cc2ccc(OC3OC(CO)C(OC4OC(COCc5ccc(Oc6ccccc6)cc5)C(O)C(O)C4O)C(O)C3O)cc2)NC1=O (stereo not shown) <0.06 µg/mL

Give MIC Streptococcus pneumoniae (ATCC 6301) only, for CC(c1ccccc1)C1NC(=O)CNC(=O)C(CO)NC(=O)C(C(O)C2CNC(=N)N2C2OC(CO)C(O)C(O)C2O)NC(=O)C(C(O)C2CNC(=N)N2)NC(=O)C(Cc2ccc(OC3OC(CO)C(OC4OC5COC(c6ccc(C(=O)c7ccc(I)cc7)cc6)OC5C(O)C4O)C(O)C3O)cc2)NC1=O (stereo not shown) , using Streptococcus sp. data. <0.06 µg/mL

Provide measured MIC Streptococcus pneumoniae (ATCC 6301) on Streptococcus sp. for CC(c1ccccc1)C1NC(=O)CNC(=O)C(CO)NC(=O)C(C(O)C2CNC(=N)N2C2OC(CO)C(O)C(O)C2O)NC(=O)C(C(O)C2CNC(=N)N2)NC(=O)C(Cc2ccc(OC3OC(CO)C(OC4OC(CO)C(O)C(OCc5ccc(OCc6ccccc6)cc5)C4O)C(O)C3O)cc2)NC1=O (stereo not shown) [Example 231c] please. <0.12 µg/mL

###

test system: Enterococcus sp.; test: in vitro antibacterial evaluation, MIC by broth dilution; type: cell-based; conditions: strain GC 3059; broth dilution, 18 hours at 35° C.
propertyName: MIC Enterococcus faecalis (GC 3059) (µg/mL)
Please respond with the number in µg/mL and leave the unit unwritten.

compound	measValue
CCOc1cc(C2OCC3OC(OC4C(CO)OC(Oc5ccc(CC6NC(=O)C(C(C)c7ccccc7)NC(=O)CNC(=O)C(CO)NC(=O)C(C(O)C7CNC(=N)N7C7OC(CO)C(O)C(O)C7O)NC(=O)C(C(O)C7CNC(=N)N7)NC6=O)cc5)C(O)C4O)C(O)C(O)C3O2)ccc1[N+](=O)[O-] (stereo not drawn)	32

Respond only with MIC Enterococcus faecalis (GC 3059) recorded for CC(c1ccccc1)C1NC(=O)CNC(=O)C(CO)NC(=O)C(C(O)C2CNC(=N)N2C2OC(CO)C(O)C(O)C2O)NC(=O)C(C(O)C2CNC(=N)N2)NC(=O)C(Cc2ccc(OC3OC(CO)C(OC4OC5COC(c6cccc(Oc7ccccc7)c6)OC5C(O)C4O)C(O)C3O)cc2)NC1=O (stereo not drawn) 4

Provide measured MIC Enterococcus faecalis (GC 3059) value, entry: COc1cc(OC)cc(C2OCC3OC(OC4C(CO)OC(Oc5ccc(CC6NC(=O)C(C(C)c7ccccc7)NC(=O)CNC(=O)C(CO)NC(=O)C(C(O)C7CNC(=N)N7C7OC(CO)C(O)C(O)C7O)NC(=O)C(C(O)C7CNC(=N)N7)NC6=O)cc5)C(O)C4O)C(O)C(O)C3O2)c1 (stereo not drawn) 8
